B1: 1-phosphatidylinositol 4,5-bisphosphate phosphodiesterase gamma-2, residues 772 to 827; numbered along this chain, P16885 (parent)
chain: RTVKALYDYKAKRSDELSFCRGALIHNVSKEPGGWWKGDYGTRIQQYFPSNYVEDI

Variants of: B1
TEST_SUMMARY: abundance fitness (aPCA) (normalised: wild type 0, dead -1); higher = more abundant; growth selection in yeast, the domain comes from the species named
TEST_CONTEXT: Homo sapiens
Given measured abundance fitness, output true if it is greater than or equal to -0.1 and false if not.

Request: abundance fitness >= -0.1 for RTVKALYDYKAKRSDELSFCRGALIHNVSKEPGGWWKGDYGTRINQYFPSNYVEDI [Q45N] ?
Response: false

Next up:
Request: abundance fitness >= -0.1 for RTVKALYDYKAKRSDELSFCRGALISNVSKEPGGWWKGDYGTRIQQYFPSNYVEDI [H26S] ?
Response: true

These measurements were taken from the Human Domainome abundance scans (Beltran et al. 2025).
